Measured values drawn from paper PMC12136788 for this set.

# target.entity: T1, UNK ZnF1-3 (human, UniProt Q9C0B0 31-174)
# T1 sequence: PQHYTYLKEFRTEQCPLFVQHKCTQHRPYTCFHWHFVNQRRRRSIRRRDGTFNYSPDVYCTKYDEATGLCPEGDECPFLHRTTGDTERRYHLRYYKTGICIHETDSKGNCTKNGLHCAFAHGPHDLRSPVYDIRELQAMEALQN
# protocol.details: nsRBNS (natural sequence RNA bind-n-seq); RBNS binding buffer (assumed for nsRBNS): 25 mM Tris pH 7.5, 150 mM KCl, 3 mM MgCl2, 0.01% Triton X-100, 500 ug/ml BSA, 20 U/ml SUPERase-In, 4 C; UNK is unkempt and MSI1 is Musashi-1; names of the RNAs are library labels; protein concentration not given here; high values mean tight binding
The full ranking holds about 24,000 sequences; the median of “enrichment r” is about 0.99, and the highest 2% start at about 3.7. What follows is part of a selection rich in the highest values, with near analogues and random picks from the rest.
Label Yes when binding signal is at or above 1 enrichment R; otherwise label No.

Query block: Confirm if binding signal reported for the binder 119691784_119693947_668_CDS_ENSG00000158290_ENST00000371322|human|control|control (ssRNA) RNA: GGGAGUUCUACAGUCCGACGAUCGAGUUCUUCUAAAUUGUACUUAAUUGAAGUACUAUUCUGAAUAGCUUCCACUGCUUCUUUCAGUUUUUGCCAGGUUUCAUCUGUGUAGUUUUCUGGUAAUUUAGGCUUAUCUUUAAAGUUCAACAGAGGAUUGAGCAUCA is 1 enrichment R or above.
Result block: No

Query block: // inclusive: binding signal at least 1 enrichment R? input: 16459948_16460068_3699_3pUTR_ENSMUSG00000024639_ENSMUST00000025541|mouse|control|control (ssRNA) RNA: GGGAGUUCUACAGUCCGACGAUCAUCCCUAGUCAGAAAUAAACUGACAAAUUUACAUUCUCCUCUCUUAAAAAAGUAAAUAAAAUAACAUUAUUCAAAAUGUGAAUUAGCUAUAAGACAUACAAUUACAUAGAUACAUAUCAACAACAGAGGAUUGAGCAUCA
Result block: Yes

Query block: # check: binding signal of chr4:34514055:34514056:+_ENSMUSG00000028291_ENSMUST00000084299|mus_mus|FALSE|FALSE (ssRNA) RNA: GGGAGUUCUACAGUCCGACGAUCCUGGGGAGGAGGUGCAGCAAUAAACAUUUGUUAAAAAGACUGAUAGAAUAAAUAAAACUACCAAAAAAUAAUAAAGAAAAUCAUAUAAACCCAUUCUGAAACCCCAAGAAAAGUCCUGAACAACAGAGGAUUGAGCAUCA is greater than or equal to 1 enrichment R
Result block: Yes

Query block: API: above_or_equal(metric=binding signal, cutoff=1 enrichment R) for item chr19:8913615:8913616:-_ENSMUSG00000071658_ENSMUST00000096259|mus_hu|mus_mus_mus_hu_False|1_8 (ssRNA) RNA: GGGAGUUCUACAGUCCGACGAUCAGGGUACCAAAACCUUCUGCCUGAAAUGGGUGCCCCACCCAGUAGGGAGUUGCAGCUGAAAGUAUCUGAUGCAGAAGCAGUGACUAUACGAAAGGAGGCCCCUGAUGCUCAGACGAGAUCCAACAGAGGAUUGAGCAUCA
Result block: Yes

Query block: Determine whether this binder has binding signal no lower than 1 enrichment R: chr14:59855892:59855893:+_ENSMUSG00000035469_ENSMUST00000043227|mus_hu|motif|central (ssRNA) RNA: GGGAGUUCUACAGUCCGACGAUCUUCCAUUAUUACAUUAGAUGAAAAAAUCAAUUCAAAUAAGAGUUGUCAUAUCCUGCGGUGAUUAACAAAAAAACAAGUAGAAAAAUAAGAGAGUGUAUUUAAAAAAAAUAAUCAAAUGCUCAACAGAGGAUUGAGCAUCA
Result block: Yes

Query block: Could you tell me if the measured binding signal of chrX:98862621:98862622:+_ENSMUSG00000034160_ENSMUST00000044475|mus_hu|mus_mus_mus_hu_False|18_28 (ssRNA) RNA: GGGAGUUCUACAGUCCGACGAUCCUGCAUCUCCUUUAGAGUGUUUCCCAUAUUAGAGUAGGCAUCAGCAAAGGUAGGACUGAUUCGAAUAGCCUCCUUAUAAUGCAUCAGUGCUUCCUGCAGCUUGCCCUGCUGCUGCAGUACCAACAGAGGAUUGAGCAUCA reaches 1 enrichment R or more?
Result block: Yes

Query block: Can chr16:45382771:45382772:-_ENSMUSG00000022661_ENSMUST00000163230|mus_mus|mus_mus_mus_hu_True|18_88 (ssRNA) RNA: GGGAGUUCUACAGUCCGACGAUCCUGGGUCAUGUUAUAAGACAAAUGGAUAGGGAGGGCAUGCUUCUCAAAAAAUGUGAGCUAUUGUCUAAGACUAACAAUAUUUAUCUAGCUAUAUAAAAAUAAGAAAUGAAUAAGUUAAGACAACAGAGGAUUGAGCAUCA be said to have binding signal at or above 1 enrichment R?
Result block: Yes

Query block: Is the recorded value of binding signal equal to or greater than 1 enrichment R for this binder? chr7:148083511:148083512:+_ENSMUSG00000025487_ENSMUST00000026560|mus_mus|FALSE|FALSE (ssRNA) RNA: GGGAGUUCUACAGUCCGACGAUCCAAAUCCAGCACUCGCGGCUGCACCCACGUCAUGUGAACCCGCUUGUCCACCUCGUCUAUGCUGCCUCUCACCAGCCCCACCGAGAGUGCCUUCAUCACCAGCAACUCCACCUUGUUGACCAACAGAGGAUUGAGCAUCA
Result block: No

Query block: Determine whether this binder has binding signal no lower than 1 enrichment R: 85396044_85398007_762_3pUTR_ENSMUSG00000021549_ENSMUST00000109552|mouse|control|control (ssRNA) RNA: GGGAGUUCUACAGUCCGACGAUCCACCAAUGUAGUAAUCACCACACAUAGCAAUAAUCCUAAAAUGAUUGACAACAUUUGUCUGACUAAGGAAUGAAAGUACAAAGGACCCCGGCCUCCGAUCACUCUCUCUUAUAAGAUAGCCAACAGAGGAUUGAGCAUCA
Result block: No

Query block: Is it the case that chr5:151611259:151611260:+_ENSMUSG00000034021_ENSMUST00000016569|mus_mus|FALSE|FALSE (ssRNA) RNA: GGGAGUUCUACAGUCCGACGAUCGCAUUUCUGAACAUAAUGUUCAAGAAGUAAUAUCUAUACACAAUAACAUUCUAGACUAUUAAAAGCCCAUUCAAAUUACAGAAUUUUAUUGAUACAGUAGAUUAAUAUAAACUGAAAAAACAACAGAGGAUUGAGCAUCA has binding signal reaching or exceeding 1 enrichment R?
Result block: Yes

Query block: Could you verify whether the entry chr11:87793471:87793472:-_ENSMUSG00000020483_ENSMUST00000020775|mus_mus|mus_mus_mus_hu_False|8_78 (ssRNA) RNA: GGGAGUUCUACAGUCCGACGAUCUGGACUUGAAAAUAAAAGAAUAAGCUGGAUCCCCCCACCCCUUACAUUGUCAACCCUACACGAGAGUUUUGAAGGCGACUCAUGAAAAUCAGCAGCUCAAACGAAUGACAACCCCCCACCCAACAGAGGAUUGAGCAUCA shows binding signal of no less than 1 enrichment R?
Result block: Yes

Query block: Is it the case that 140276459_140277056_1559_CDS_ENSMUSG00000040945_ENSMUST00000038893|mouse|control|control (ssRNA) RNA: GGGAGUUCUACAGUCCGACGAUCGUCUCGCGCUAUCACCAAGGAGUGUGAAUAGCCCAUGGCCACCUGUUCGGAGAAGAUGCCAUCCAGAGUCUUCACCUCCUGGGCCGCAGUAGAAGACUUGGGCUUGUGGUCCCCAUACCCCAACAGAGGAUUGAGCAUCA has binding signal reaching or exceeding 1 enrichment R?
Result block: No

Query block: Confirm if binding signal reported for the binder chr3:119456006:119456007:-_ENSMUSG00000028134_ENSMUST00000029780|mus_hu|FALSE|FALSE (ssRNA) RNA: GGGAGUUCUACAGUCCGACGAUCAAUAUGAAGUACACGAGAAGGAGCACCAUCCAUUUUAUCUUCUCCUUUAAAUUUUUUACUAUCAUUACCAUUGGCUGUAACUACCAUGCUGCUCAUAUUAGAGUUCGGACUACUGAGAACCAACAGAGGAUUGAGCAUCA is 1 enrichment R or above.
Result block: Yes
